# Test system: L-gulono-gamma-lactone dehydrogenase (GLDH)
# Experiment: Effect of inhibitors on GLDH enzyme activity
# Type: biochemical, Gluconobacter oxydans DSM 4025
# Setup conditions: inhibitor 4.46 mM
Reported property: Relative activity (%)
# output: bare number, implied unit %

Examples with their reported Relative activity (%) follow.
INSERT INTO results (compound, tested_system, reported_property, value_measured) VALUES
  ('O=C(O)c1cc[c]([Hg][Cl])cc1 [PCMB, p-chloro-mercuribenzoate]', 'L-gulono-gamma-lactone dehydrogenase (GLDH)', 'Relative activity (%)', 100),
  ('[F-].[Na+] [Sodium fluoride]', 'L-gulono-gamma-lactone dehydrogenase (GLDH)', 'Relative activity (%)', 97.6),
  ('[N-]=[N+]=[N-] [Sodium azide]', 'L-gulono-gamma-lactone dehydrogenase (GLDH)', 'Relative activity (%)', 97.6);

Task item: Give reported Relative activity (%) value for "O.O.O.O.O.O.O.O=[As]([O-])([O-])O.[Na+].[Na+]"
Reply: 97.6

Task item: Give reported Relative activity (%) value for CCN1C(=O)C=CC1=O [N-Ethyl-maleimide]
Reply: 100

====

# System: L-gulono-gamma-lactone dehydrogenase (GLDH)
# Experiment: Effect of metal ions on GLDH enzyme activity
# Type: biochemical, Gluconobacter oxydans DSM 4025
# Setup conditions: metal 0.19 mM
Each entry gets No if its Relative activity (%) stays under 90%, and Yes if its Relative activity (%) is 90% or above.

INSERT INTO measurements (entry_smiles, assigned_category) VALUES
  ('O.O.O.O.O.O.[Cl-].[Cl-].[Co+2]', 'Yes'),
  ('[Ca+2].[Cl-].[Cl-]', 'Yes'),
  ('O.O.[Cl][Cu][Cl]', 'No'),
  ('O.O.O.O.O.O=S(=O)([O-])[O-].[Cu+2]', 'No'),
  ('O.O.O.O.O=[N+]([O-])[O-].O=[N+]([O-])[O-].[Ca+2]', 'Yes'),
  ('O.O.O.O.O.O.[Cl-].[Cl-].[Mg+2]', 'Yes');

Now for another entry.
Task item: Would you say "O.O.O.O.[Cl][Mn][Cl]" shows Relative activity (%) at minimum 90%?
Reply: Yes

====

# System: L-gulono-gamma-lactone dehydrogenase (GLDH)
# Experiment: Substrate specificity of GLDH (DCIP reduction enzyme assay)
# Type: biochemical, Gluconobacter oxydans DSM 4025
# Setup conditions: substrate 400 mM
Reported property: activity of GLDH on substrate

Examples with their reported activity of GLDH on substrate follow.
INSERT INTO results (entry_smiles, value_measured) VALUES
  ('O=C1O[C@H]([C@@H](O)CO)[C@H](O)[C@@H]1O', 'highly active'),
  ('O=C[C@H](O)[C@@H](O)[C@H](O)CO', 'highly active'),
  ('O=C[C@H](O)[C@H]1OC(=O)[C@@H](O)[C@H]1O', 'weakly active'),
  ('O=C[C@@H](O)[C@@H](O)[C@H](O)[C@H](O)CO', 'weakly active');

# input for lookup
Task item: State activity of GLDH on substrate on L-gulono-gamma-lactone dehydrogenase (GLDH). Entry: "O=C[C@H](O)[C@@H](O)[C@H](O)[C@H](O)CO"
Reply: weakly active

====

Listed here: items and their measured Relative activity (%).
# System: L-gulono-gamma-lactone dehydrogenase (GLDH)
# Experiment: Effect of metal ions on GLDH enzyme activity
# Type: biochemical, Gluconobacter oxydans DSM 4025
# Setup conditions: metal 0.38 mM
# Protocol: The enzyme assay was performed at 25° C. by measuring the decrease of absorbance at 600 nm of DCIP spectrophotometrically. One unit of enzyme activity was defined as the amount of enzyme which catalyzed the reduction of 1 μmole of DCIP per minute. […] A reference cuvette contained all components except L-gulono gamma-lactone. The reaction was started by the addition of L-gulono-gamma-lactone. Enzyme activity was measured as the initial reduction rate of DCIP. […]
# output: bare number, implied unit %

Examples with their reported Relative activity (%) follow.
INSERT INTO measurements (compound, tested_system, value_measured) VALUES
  ('O.O.O.O.O.O.O.O=S(=O)([O-])[O-].[Co+2] [CoSO4.7H2 O]', 'L-gulono-gamma-lactone dehydrogenase (GLDH)', 108),
  ('O.O.O.O=[N+]([O-])[O-].O=[N+]([O-])[O-].[Cu+2] [Cu(NO3)2.3H2 O]', 'L-gulono-gamma-lactone dehydrogenase (GLDH)', 24),
  ('O.O.O.O.O.O.O.O=S(=O)([O-])[O-].[Ni+2] [NiSO4.7H2 O]', 'L-gulono-gamma-lactone dehydrogenase (GLDH)', 96);

Task item: State Relative activity (%) on L-gulono-gamma-lactone dehydrogenase (GLDH). Entry: O.O.O.O.[Cl][Mn][Cl] [MnCl2.4H2 O]
Reply: 0
